# Tested on: SF-539 CNS
# protocolNotes: NCI tumour cell line growth inhibition, 48 h
GI50 values by entry
reportedProperty: GI50

• O=S(=O)(Nc1ccccc1)c1ccc(C2CC3(Cl)C(Cl)=C(Cl)C2(Cl)C3(Cl)Cl)cc1 (centres undefined) = 2320 nM
• O=C1NC(=O)N(S(=O)(=O)c2cc(C(=O)Nc3ccc(Cl)cc3)c(Cl)cc2S)S(=O)(=O)N1 = 19700 nM
• COc1cc2c(cc1OCCN1CCN(CCN3C(=O)c4cccc5cccc(c45)C3=O)CC1)N=C[C@@H]1CCCN1C2=O = 20800 nM
• O=[N+]([O-])c1ccc(N/N=C\c2cc(Br)ccc2O)nc1 = 918 nM
• CCCCCCCCCCN=C(N)c1ccc(N2CCN(c3ccc(C(N)=NCCCCCCCCCC)cc3)CC2)cc1 = 1720 nM
• N#C[Se]CCN1C(=O)c2ccccc2C1=O = 1920 nM
• COc1cc2c(Oc3ccc(-c4cnc(Nc5ccc(F)cc5)n(C)c4=O)cc3F)ccnc2cc1OCCCN1CCOCC1 = 464 nM
• c1cc(OCCCCCOc2cccc(-c3nc4ccccc4[nH]3)c2)cc(-c2nc3ccccc3[nH]2)c1 = 5080 nM
• CCCCCCCCCCCCOC1C(C(COC2OC(C(O)CO)C3OC(C)(C)OC23)OC(=O)Nc2ccccc2)OC2OC(C)(C)OC21 (centres undefined) = 9140 nM

###

# System: SN12C renal
# protocolNotes: NCI tumour cell line growth inhibition, 48 h; in the data active means GI50 below about 0.43 µM; inactive means the rest
Classes used: 1 (active), 0 (inactive)

- CN(C)[C@@H]1C(=O)C(C(=O)NCc2nc3[nH]cnc(=S)c3[nH]2)=C(O)[C@@]2(O)C(=O)C3=C(O)c4c(O)cccc4[C@@](C)(O)[C@H]3C[C@@H]12: 0
- O=c1c(Oc2ccc(F)cc2F)cc2cnc(NC3CCOCC3)nc2n1C1CC1: 0
- CC1=C(C(=O)Nc2ccc3[nH]ncc3c2)C(c2ccc(F)cc2)N=C(c2ccc(C(F)(F)F)nc2)N1 (stereo not drawn): 0
- COc1ccc(Cn2c(Br)c3c(c2-c2cc(OC)c(OC)c(OC)c2)CCc2sc(N)nc2-3)cc1: 0
- COc1cc(/C=C/c2cc(/C=C/c3ccc(O)c(OC)c3)n(C(=O)Nc3ccc(C)cc3)n2)ccc1O: 1
- O=[N+]([O-])c1ccc(N/N=C\c2cc(Br)ccc2O)nc1: 0
- CCOC(=O)C#Cc1c(C(=O)OCC)nnn1[C@@H]1O[C@H](COC)[C@@H](OC)[C@H]1OC: 0
- O=C1c2ccccc2-c2c1c1c(O)cccc1n2Cc1ccccc1: 0

###

# Test system: SR leukemia
# protocolNotes: NCI tumour cell line growth inhibition, 48 h
reportedProperty: log10 of TGI (log10 of the value in µM)

- CC1OC(OC2C(OC(=O)[C@]34CCC(C)(C)C[C@H]3C3=CC[C@@H]5[C@@]6(C)CC[C@H](OC7OC(CO)C(O)C(O)C7OC7OC(CO)C(O)C(O)C7O)C(C)(C)[C@@H]6CC[C@@]5(C)[C@]3(C)CC4)OCC(O)C2O)C(O)C(O)C1OC1OCC(O)C(O)C1O (some centres undefined): 1.38
- O=c1c(-c2ccccc2)c(SCCCN2CCCCC2)n(-c2ccccc2)c(=S)n1-c1ccccc1: 1.57
- COC1=CC(=O)C(O)=C(CC2(C)C(C)CCC3(C)C2CCCC3(C)C)C1=O (centres undefined): 1.11
- Nc1cc(C(F)(F)F)c(-c2nc(N3CCOCC3)nc(N3CCOCC3)n2)cn1: 1.45
- CCOC(=O)c1c(Cl)c2c(n1Cc1ccccc1)-c1oncc1CCC2: 0.92
- COC(=O)/C=C1\C(CO[Si](C)(C)C(C)(C)C)OC(n2ccc(=O)[nH]c2=O)C1O (centres undefined): 1.42
- COc1cc2c3c(n(CCCN)c(=O)c2cc1OC)-c1ccc(N)cc1C3=O: 0.16
- CNCc1cccc2c1OCCOCCOCCNS(=O)(=O)c1ccc(cc1)-c1cnc(N)c(n1)C(=O)N2: 1.12
- O=C1CSC(c2cc3cc(Br)ccc3nc2Cl)N1c1ccc(Cl)cc1 (centres undefined): 1.65

Source of measurements: PubChem BioAssay (NCI)
